Measured pKi, listed per entry.
# experimental_target: Mu-type opioid receptor (Rattus norvegicus, UniProt P33535)
# Sequence (P33535 whole entry): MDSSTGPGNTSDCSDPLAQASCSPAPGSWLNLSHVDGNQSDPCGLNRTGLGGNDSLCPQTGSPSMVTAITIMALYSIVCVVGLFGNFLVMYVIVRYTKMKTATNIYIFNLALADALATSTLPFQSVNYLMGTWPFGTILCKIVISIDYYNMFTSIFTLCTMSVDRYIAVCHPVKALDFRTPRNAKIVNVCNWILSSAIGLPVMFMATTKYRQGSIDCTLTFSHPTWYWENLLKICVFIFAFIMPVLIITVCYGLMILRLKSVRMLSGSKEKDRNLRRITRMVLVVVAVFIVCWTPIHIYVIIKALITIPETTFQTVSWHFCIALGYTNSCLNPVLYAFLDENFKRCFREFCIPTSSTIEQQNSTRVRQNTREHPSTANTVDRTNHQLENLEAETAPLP
# experiment: Inhibition of binding of [3H]DAMGO to opioid receptor mu 1 from rat brain membrane.
Scale: negative log10 of molar concentration, which is what pKi denotes.

Known results for compounds:
[
  {
    "substance_smiles": "CCCN1CCN(/C(=N\\c2ccccc2Cl)c2ccc(C(=O)OC)cc2)CC1",
    "experimental_target": "Mu-type opioid receptor (Rattus norvegicus, UniProt P33535)",
    "endpoint": "pKi",
    "assay_value": 5.68
  },
  {
    "substance_smiles": "CCN(CC)C(=O)c1ccc(/C(=N/c2ccccc2Cl)N2CCCN(CCc3ccccc3)CC2)cc1",
    "experimental_target": "Mu-type opioid receptor (Rattus norvegicus, UniProt P33535)",
    "endpoint": "pKi",
    "assay_value": 6.21
  }
]

Continue with the next compound.
Request: Requested field: pKi. Item: COC(=O)c1ccc(/C(=N/c2ccccc2Cl)N2CCCN(CCc3ccccc3)CC2)cc1
Response: 6.71

---

# experimental_target: Delta-type opioid receptor (Rattus norvegicus)
# Sequence (P33533 whole entry): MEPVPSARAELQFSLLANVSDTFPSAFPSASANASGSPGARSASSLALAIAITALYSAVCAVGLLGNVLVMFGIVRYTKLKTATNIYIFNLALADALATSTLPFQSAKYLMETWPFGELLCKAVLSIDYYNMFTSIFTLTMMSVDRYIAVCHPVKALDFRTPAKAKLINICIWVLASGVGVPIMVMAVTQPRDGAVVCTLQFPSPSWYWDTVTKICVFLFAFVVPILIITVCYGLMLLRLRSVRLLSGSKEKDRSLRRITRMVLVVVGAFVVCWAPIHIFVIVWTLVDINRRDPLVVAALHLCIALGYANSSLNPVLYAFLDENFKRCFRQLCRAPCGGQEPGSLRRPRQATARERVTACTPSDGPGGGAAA
# experiment: Inhibition of binding of [3H]-DPDPE to opioid receptor delta 1 from rat brain membrane.
endpoint: Ki (nM)
Express your answer in nM, writing the number without its unit.

Take a look at these entries with their results.
[
  {
    "substance_smiles": "CCN1CCN(/C(=N\\c2cccc(Cl)c2)c2ccc(C(=O)N(CC)CC)cc2)CC1",
    "Ki [nM]": 63
  },
  {
    "substance_smiles": "CCN(CC)C(=O)c1ccc(/C(=N/c2ccccc2)N2CCN(Cc3ccccc3)CC2)cc1",
    "Ki [nM]": 212
  },
  {
    "substance_smiles": "CCN(CC)C(=O)c1ccc(/C(=N/c2ccc(Cl)cc2)N2CCN(Cc3ccccc3)CC2)cc1",
    "Ki [nM]": 142
  },
  {
    "substance_smiles": "C=CCN1CCN(/C(=N\\c2cccc(Cl)c2)c2ccc(C(=O)N(CC)CC)cc2)CC1",
    "Ki [nM]": 157
  }
]

Request: What does the record list as Ki for CCN1CCN(/C(=N\c2ccccc2Cl)c2ccc(C(=O)OC)cc2)CC1 ?
Response: 222

Request: Data request, read-out Ki, for CCN(CC)C(=O)c1ccc(/C(=N/c2ccccc2C(F)(F)F)N2CCN(Cc3ccccc3)CC2)cc1
Response: 1.22

Request: Suppose we examine the compound CCCN(CCC)C(=O)c1ccc(/C(=N/c2ccccc2Cl)N2CCN(CC)CC2)cc1 ; what Ki value has been reported?
Response: 292

Request: Fill in: Ki of CCN1CCN(/C(=N\c2cccc(Br)c2)c2ccc(C(=O)N(CC)CC)cc2)CC1 is ___
Response: 57.6

Request: Find the recorded Ki belonging to CCN(CC)C(=O)c1ccc(/C(=N/c2ccccc2)N2CCCN(CCc3ccccc3)CC2)cc1 and report it.
Response: 543

Request: Find the recorded Ki belonging to COC(=O)c1ccc(/C(=N/c2ccccc2)N2CCCN(CCc3ccccc3)CC2)cc1 and report it.
Response: 820

Request: Would you mind telling me what Ki value was observed for CCN1CCN(/C(=N\c2ccccc2Cl)c2ccc(C(=O)N(CC)CC)cc2)CC1 ?
Response: 91.1

Request: Consider the compound shown here: CCN1CCN(/C(=N\c2cc(Cl)cc(Cl)c2)c2ccc(C(=O)N(CC)CC)cc2)CC1 What is its recorded Ki?
Response: 277

Request: Which Ki is reported for this compound? COC(=O)c1ccc(/C(=N/c2ccccc2Cl)N2CCCN(CCc3ccccc3)CC2)cc1
Response: 101

Request: Entry CCN(CC)C(=O)c1ccc(/C(=N/c2ccccc2C(F)(F)F)N2CCN(CCOC)CC2)cc1 : reported Ki = ?
Response: 22.9

Request: Name the reported Ki value associated with the compound CCCN1CCN(/C(=N\c2ccccc2Cl)c2ccc(C(=O)OC)cc2)CC1
Response: 87.3

Request: Which Ki is listed for C=CCN1C[C@H](C)N(/C(=N\c2ccccc2)c2ccc(C(=O)OC)cc2)C[C@H]1C ?
Response: 405

Request: GET /values?readout=Ki&item= CCN(CC)C(=O)c1ccc(/C(=N/c2ccccc2Cl)N2CCN(CCOC)CC2)cc1
Response: 53.5

Request: What does the data say about its Ki? Entry: CCN(CC)C(=O)c1ccc(/C(=N/c2ccccc2Cl)N2CCN(CCc3cccs3)CC2)cc1
Response: 95.3

Request: Using the record for CCCN(CCC)C(=O)c1ccc(/C(=N/c2ccccc2OC)N2CCN(CC)CC2)cc1 , report its Ki.
Response: 1020

Request: Any idea what Ki was measured for C=CCN1CCN(/C(=N\c2ccccc2)c2ccc(C(=O)N(CC)CC)cc2)CC1 ?
Response: 859

Request: Ki lookup needed for CCCN1CCN(/C(=N\c2cccc(Cl)c2)c2ccc(C(=O)N(CC)CC)cc2)CC1 , thanks.
Response: 177

Request: Find the recorded Ki belonging to C=CCN1C[C@H](C)N(/C(=N\c2ccccc2)c2ccc(C(=O)N(CC)CC)cc2)C[C@H]1C and report it.
Response: 170

Request: Item C=CCN1CCN(/C(=N\c2ccccc2Cl)c2ccc(C(=O)N(CC)CC)cc2)CC1 has what recorded Ki?
Response: 20.5

Request: Would you kindly share the measured Ki for CCN1CCN(/C(=N\c2cccc(F)c2)c2ccc(C(=O)N(CC)CC)cc2)CC1 ?
Response: 58.5

Request: Please report the recorded Ki for CCN(CC)C(=O)c1ccc(/C(=N/c2ccccc2Cl)N2CCN(Cc3ccccc3)CC2)cc1 .
Response: 11.8

---

Consider compounds characterized by their Ki with Mu-type opioid receptor (Rattus norvegicus, UniProt P33535).
Kindly answer with a numeric value in nM, unit omitted.

Answered cases to consult:
[
  {
    "substance_smiles": "CCN(CC)C(=O)c1ccc(/C(=N/c2ccccc2C(F)(F)F)N2CCN(Cc3ccccc3)CC2)cc1",
    "measurement_units": "nM",
    "assay_value": 1200
  },
  {
    "substance_smiles": "CCN(CC)C(=O)c1ccc(/C(=N/c2ccccc2C(F)(F)F)N2CCN(CCOC)CC2)cc1",
    "measurement_units": "nM",
    "assay_value": 2960
  },
  {
    "substance_smiles": "CCN(CC)C(=O)c1ccc(/C(=N/c2ccccc2C(F)(F)F)N2CCN(CCc3ccccc3)CC2)cc1",
    "measurement_units": "nM",
    "assay_value": 1000
  }
]

Read the next record carefully.
Request: Missing value: Ki, Mu-type opioid receptor (Rattus norvegicus, UniProt P33535), entry C=CCN1CCN(/C(=N\c2ccccc2Cl)c2ccc(C(=O)N(CC)CC)cc2)CC1 . Fill in?
Response: 7600

---

Below are Ki values measured for Mu-type opioid receptor (Rattus norvegicus).

Here are 4 molecules together with their reported answers.
[
  {
    "substance_smiles": "CCN1CCN(/C(=N\\c2cccc(F)c2)c2ccc(C(=O)N(CC)CC)cc2)CC1",
    "experimental_target": "Mu-type opioid receptor (Rattus norvegicus)",
    "Ki": "> 10 µM"
  },
  {
    "substance_smiles": "CCN(CC)C(=O)c1ccc(/C(=N/c2ccccc2Cl)N2CCN(CCc3cccs3)CC2)cc1",
    "experimental_target": "Mu-type opioid receptor (Rattus norvegicus)",
    "Ki": "> 10 µM"
  },
  {
    "substance_smiles": "CCN(CC)C(=O)c1ccc(/C(=N/c2ccccc2Cl)N2CCN(CCOC)CC2)cc1",
    "experimental_target": "Mu-type opioid receptor (Rattus norvegicus)",
    "Ki": "> 10 µM"
  },
  {
    "substance_smiles": "CCN(CC)C(=O)c1ccc(/C(=N/c2ccccc2)N2CCN(CCc3cccs3)CC2)cc1",
    "experimental_target": "Mu-type opioid receptor (Rattus norvegicus)",
    "Ki": "> 10 µM"
  }
]

Let us examine a further case.
Request: Short answer please: Ki, Mu-type opioid receptor (Rattus norvegicus), entry CCN1CCN(/C(=N\c2ccccc2Cl)c2ccc(C(=O)OC)cc2)CC1
Response: > 1 µM
